Reference for the values: patent US9732032B2

# studyTarget: human recombinant full-length fatty acid synthase (FASN) (Homo sapiens, UniProt P49327)
# Construct: human recombinant full-length fatty acid synthase
# Sequence (P49327 whole entry): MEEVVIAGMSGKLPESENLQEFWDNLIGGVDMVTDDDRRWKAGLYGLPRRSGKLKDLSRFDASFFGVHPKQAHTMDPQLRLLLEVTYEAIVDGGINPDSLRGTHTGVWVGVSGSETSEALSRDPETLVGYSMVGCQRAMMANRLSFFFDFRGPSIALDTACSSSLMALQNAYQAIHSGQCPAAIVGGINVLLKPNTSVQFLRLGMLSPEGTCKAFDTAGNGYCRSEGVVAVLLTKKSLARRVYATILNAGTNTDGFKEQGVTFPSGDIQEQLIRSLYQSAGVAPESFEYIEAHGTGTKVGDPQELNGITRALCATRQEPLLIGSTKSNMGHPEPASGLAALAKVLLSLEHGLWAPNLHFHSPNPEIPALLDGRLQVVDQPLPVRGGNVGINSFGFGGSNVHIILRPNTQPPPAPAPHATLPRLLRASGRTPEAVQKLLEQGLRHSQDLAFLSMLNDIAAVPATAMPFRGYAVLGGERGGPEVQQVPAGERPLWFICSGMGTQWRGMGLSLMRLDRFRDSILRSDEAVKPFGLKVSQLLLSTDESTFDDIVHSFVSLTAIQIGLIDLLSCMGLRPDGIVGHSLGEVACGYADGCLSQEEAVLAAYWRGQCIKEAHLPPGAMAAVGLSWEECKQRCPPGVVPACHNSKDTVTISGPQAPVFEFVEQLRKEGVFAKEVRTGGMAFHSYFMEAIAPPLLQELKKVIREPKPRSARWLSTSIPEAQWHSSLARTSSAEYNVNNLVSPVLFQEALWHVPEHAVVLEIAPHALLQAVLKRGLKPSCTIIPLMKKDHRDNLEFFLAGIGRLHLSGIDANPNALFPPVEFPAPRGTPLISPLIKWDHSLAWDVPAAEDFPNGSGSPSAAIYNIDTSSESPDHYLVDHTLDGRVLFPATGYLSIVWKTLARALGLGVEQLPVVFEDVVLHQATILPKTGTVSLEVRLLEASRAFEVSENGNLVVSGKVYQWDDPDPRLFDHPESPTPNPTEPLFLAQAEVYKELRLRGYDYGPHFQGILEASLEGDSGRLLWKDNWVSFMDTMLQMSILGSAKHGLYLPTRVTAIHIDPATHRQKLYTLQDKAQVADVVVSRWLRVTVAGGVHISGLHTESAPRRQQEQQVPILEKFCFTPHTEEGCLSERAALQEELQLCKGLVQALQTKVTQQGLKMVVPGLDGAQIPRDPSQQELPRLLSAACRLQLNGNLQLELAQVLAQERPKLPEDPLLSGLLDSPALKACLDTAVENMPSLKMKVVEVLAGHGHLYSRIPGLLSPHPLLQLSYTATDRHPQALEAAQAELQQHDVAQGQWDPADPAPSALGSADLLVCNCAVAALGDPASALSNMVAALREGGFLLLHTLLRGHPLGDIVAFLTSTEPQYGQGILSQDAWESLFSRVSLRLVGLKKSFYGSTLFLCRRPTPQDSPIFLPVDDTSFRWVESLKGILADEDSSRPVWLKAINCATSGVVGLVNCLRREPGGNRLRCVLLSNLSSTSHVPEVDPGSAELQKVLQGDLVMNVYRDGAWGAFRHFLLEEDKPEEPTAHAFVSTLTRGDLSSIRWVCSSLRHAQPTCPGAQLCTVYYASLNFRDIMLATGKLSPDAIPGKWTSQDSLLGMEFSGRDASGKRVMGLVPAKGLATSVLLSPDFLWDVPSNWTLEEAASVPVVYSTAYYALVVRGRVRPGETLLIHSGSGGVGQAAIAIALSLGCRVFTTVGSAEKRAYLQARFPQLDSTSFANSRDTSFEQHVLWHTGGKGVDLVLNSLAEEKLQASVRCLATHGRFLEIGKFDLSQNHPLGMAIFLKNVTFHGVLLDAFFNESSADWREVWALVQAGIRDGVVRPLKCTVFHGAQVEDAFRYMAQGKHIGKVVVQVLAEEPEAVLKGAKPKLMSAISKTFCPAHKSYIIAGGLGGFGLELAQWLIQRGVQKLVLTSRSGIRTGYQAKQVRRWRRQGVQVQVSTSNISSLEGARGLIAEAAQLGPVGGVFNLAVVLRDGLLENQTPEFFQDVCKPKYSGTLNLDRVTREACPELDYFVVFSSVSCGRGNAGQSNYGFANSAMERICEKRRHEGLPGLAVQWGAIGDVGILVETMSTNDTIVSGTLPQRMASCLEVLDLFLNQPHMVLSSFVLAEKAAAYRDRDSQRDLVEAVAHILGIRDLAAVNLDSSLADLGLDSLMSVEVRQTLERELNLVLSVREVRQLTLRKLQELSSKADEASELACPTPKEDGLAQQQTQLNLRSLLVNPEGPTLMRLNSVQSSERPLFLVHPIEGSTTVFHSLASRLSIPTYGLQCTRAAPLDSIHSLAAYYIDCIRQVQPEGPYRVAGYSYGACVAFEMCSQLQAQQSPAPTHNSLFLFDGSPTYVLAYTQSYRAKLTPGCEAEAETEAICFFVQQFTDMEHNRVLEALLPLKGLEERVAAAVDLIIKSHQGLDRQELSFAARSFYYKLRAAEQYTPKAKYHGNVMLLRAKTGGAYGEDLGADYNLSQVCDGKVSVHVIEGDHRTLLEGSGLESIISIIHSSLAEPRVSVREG
# assayInfo: Biochemical activity testing of human fatty acid synthase FASN (NADPH fluorescence intensity assay)
# protocolConditions: NADPH fluorescence decrease (ex 340 nm / em 460 nm), 30 minutes at room temperature, read-out: IC50 FASN (enzyme assay)
Exercise: for every item that follows, state its recorded IC50.

## Input Please look at this compound and report its IC50: `CCNC(=O)[C@H]1CC[C@@H](N(C)C(=O)c2ccc(-c3nc4ccccc4o3)c(OC)c2)C1`
## Output < 0.3 µM

## Input Please look at this compound and report its IC50: `CCN(C)C(=O)[C@H]1CC[C@@H](N(C)C(=O)c2ccc(-c3nc4ccccc4o3)cc2)C1`
## Output 0.3 to 3 µM

## Input Please look at this compound and report its IC50: `COc1cc(C(=O)N(C)[C@@H]2CC[C@H](C(=O)NC3(C)CC3)C2)ccc1-c1nc2ccccc2o1`
## Output < 0.3 µM

Turning now to a further compound:
## Input Please look at this compound and report its IC50: `CCNC(=O)[C@H]1CC[C@@H](N(C)C(=O)c2ccc(C#Cc3ccc(Cl)cc3)cc2)C1`
## Output < 0.3 µM

* * *

Exercise: for every item that follows, state its recorded IC50.
# studyTarget: human recombinant full-length fatty acid synthase (FASN) (Homo sapiens, UniProt P49327)
# Construct: human recombinant full-length fatty acid synthase
# assayInfo: Biochemical activity testing of human fatty acid synthase FASN (NADPH fluorescence intensity assay)
# protocolConditions: NADPH fluorescence decrease (ex 340 nm / em 460 nm), 30 minutes at room temperature, read-out: IC50 FASN (enzyme assay)

## Input Please look at this compound and report its IC50: CN(C(=O)c1ccc(-c2nc3ccccc3o2)cc1)[C@@H]1CC[C@H](C(=O)NC2(CO)CC2)C1 [Compound A108]
## Output 300 to 3000 nM

## Input Please look at this compound and report its IC50: CN(C(=O)c1ccc(-c2nc3ccccc3o2)cc1)[C@@H]1CC[C@H](C(=O)NC2CCCC2)C1 [Compound A7]
## Output < 300 nM

## Input Please look at this compound and report its IC50: CCNC(=O)[C@H]1CC[C@@H](N(C)C(=O)c2ccc(C#Cc3ccc(OC)cc3)cc2)C1 [Compound A69]
## Output < 300 nM

## Input Please look at this compound and report its IC50: CCNC(=O)[C@H]1CC[C@@H](N(C)C(=O)c2ccc(-c3ccccc3C(F)(F)F)cc2)C1 [Compound A64]
## Output < 300 nM

## Input Please look at this compound and report its IC50: CN(C(=O)c1ccc(-c2cccnc2)cc1)[C@@H]1CC[C@H](C(=O)NC2(C)CC2)C1 [Compound A83]
## Output < 300 nM

## Input Please look at this compound and report its IC50: CCNC(=O)[C@H]1CC[C@@H](N(C)C(=O)c2ccc(-c3nc4ccccc4[nH]3)cc2)C1 [Compound A11]
## Output < 300 nM

## Input Please look at this compound and report its IC50: CCNC(=O)[C@H]1CC[C@@H](N(C)C(=O)c2ccc(-c3nnc(OC)cc3C)cc2)C1 [Compound A52]
## Output 3000 to 50000 nM

## Input Please look at this compound and report its IC50: CN(C(=O)c1ccc(-c2ccc(C#N)cc2)cc1)[C@@H]1CC[C@H](C(=O)NC2(C)CC2)C1 [Compound A81]
## Output < 300 nM

Parameters: items (list). Returns: IC50 for each item.
1. CN(C(=O)c1ccc(-c2ccccc2)cc1)[C@@H]1CC[C@H](C(=O)NC2(C)CC2)C1 [Compound A67]
2. CN(C(=O)c1ccc(-c2nc3ccccc3o2)cc1)[C@@H]1CC[C@H](C(=O)NC2(C)CCC2)C1 [Compound A84]
3. C[C@@H](CO)NC(=O)[C@H]1CC[C@@H](N(C)C(=O)c2ccc(-c3nc4ccccc4o3)cc2)C1 [Compound A90]
4. CCNC(=O)[C@H]1CC[C@@H](N(C)C(=O)c2ccc(-c3noc(C)n3)cc2)C1 [Compound A88]
5. CCNC(=O)[C@H]1CC[C@@H](N(C)C(=O)c2ccc(-c3nc4ccc(F)cc4o3)cc2)C1 [Compound A98]
6. CCNC(=O)[C@H]1CC[C@@H](N(C)C(=O)c2ccc(-c3ccc(F)cc3F)cc2)C1 [Compound A63]
7. CCNC(=O)[C@H]1CC[C@@H](N(C)C(=O)c2ccc(-c3nc4ccccc4n3C)cc2)C1 [Compound A2]
8. CN(C(=O)c1ccc(-c2nc3ccccc3o2)cc1)[C@@H]1CC[C@H](C(=O)NC2CCC2)C1 [Compound A76]

## Output
< 300 nM
< 300 nM
300 to 3000 nM
3000 to 50000 nM
< 300 nM
< 300 nM
< 300 nM
< 300 nM

## Input Please look at this compound and report its IC50: CCNC(=O)[C@H]1CC[C@@H](N(C)C(=O)c2ccc(-c3nc4cc(F)c(F)cc4o3)cc2)C1 [Compound A101]
## Output < 300 nM
